settings: in 1,4-dioxane, 308.15 K
Endpoint name: solubility (mole fraction)

Structure notation: CN(C)Cc1c[nH]c2ccccc12
Result: 0.0684

----------
conditions: in methanol, 288.15 K
Endpoint name: solubility (mole fraction)

Structure notation: CN(C)Cc1c[nH]c2ccccc12
Endpoint name: solubility (mole fraction)
Result: 0.0341

----------
conditions: in acetone, 313.15 K

Structure notation: CN(C)Cc1c[nH]c2ccccc12
solubility (mole fraction): 0.0584

----------
settings: in isopropanol, 308.15 K

Structure notation: CN(C)Cc1c[nH]c2ccccc12
solubility (mole fraction): 0.0341

----------
conditions: in n-octanol, 308.15 K
Endpoint name: solubility (mole fraction)

Structure notation: CN(C)Cc1c[nH]c2ccccc12
Result: 0.0319

----------
conditions: in n-propanol, 298.15 K

Structure notation: CN(C)Cc1c[nH]c2ccccc12
solubility (mole fraction): 0.046

----------
conditions: in n-octanol, 293.15 K

Structure notation: CN(C)Cc1c[nH]c2ccccc12
solubility (mole fraction): 0.0218

----------
details: in ethyl acetate, 313.15 K

Structure notation: CN(C)Cc1c[nH]c2ccccc12
solubility (mole fraction): 0.0479

----------
details: in isopropanol, 303.15 K

Structure notation: CN(C)Cc1c[nH]c2ccccc12
solubility (mole fraction): 0.0305

----------
settings: in n-butanol, 303.15 K
Endpoint name: solubility (mole fraction)

Structure notation: CN(C)Cc1c[nH]c2ccccc12
Endpoint name: solubility (mole fraction)
Result: 0.0565

----------
conditions: in n-propanol, 293.15 K

Structure notation: CN(C)Cc1c[nH]c2ccccc12
solubility (mole fraction): 0.0415

----------
conditions: in acetone, 283.15 K

Structure notation: CN(C)Cc1c[nH]c2ccccc12
solubility (mole fraction): 0.0289

----------
conditions: in n-propanol, 288.15 K
Endpoint name: solubility (mole fraction)

Structure notation: CN(C)Cc1c[nH]c2ccccc12
Result: 0.0381

----------
conditions: in n-propanol, 303.15 K
Endpoint name: solubility (mole fraction)

Structure notation: CN(C)Cc1c[nH]c2ccccc12
Endpoint name: solubility (mole fraction)
Result: 0.0515

----------
settings: in ethyl acetate, 293.15 K
Endpoint name: solubility (mole fraction)

Structure notation: CN(C)Cc1c[nH]c2ccccc12
Endpoint name: solubility (mole fraction)
Result: 0.029

----------
conditions: in ethyl acetate, 278.15 K

Structure notation: CN(C)Cc1c[nH]c2ccccc12
solubility (mole fraction): 0.0193

----------
settings: in isopropanol, 273.15 K
Endpoint name: solubility (mole fraction)

Structure notation: CN(C)Cc1c[nH]c2ccccc12
Endpoint name: solubility (mole fraction)
Result: 0.013

----------
details: in 1,4-dioxane, 313.15 K
Endpoint name: solubility (mole fraction)

Structure notation: CN(C)Cc1c[nH]c2ccccc12
Endpoint name: solubility (mole fraction)
Result: 0.0746

----------
details: in acetonitrile, 278.15 K

Structure notation: CN(C)Cc1c[nH]c2ccccc12
solubility (mole fraction): 0.00517

----------
conditions: in acetonitrile, 303.15 K

Structure notation: CN(C)Cc1c[nH]c2ccccc12
solubility (mole fraction): 0.0116

----------
conditions: in methanol, 308.15 K

Structure notation: CN(C)Cc1c[nH]c2ccccc12
solubility (mole fraction): 0.0537

----------
settings: in toluene, 283.15 K
Endpoint name: solubility (mole fraction)

Structure notation: CN(C)Cc1c[nH]c2ccccc12
Endpoint name: solubility (mole fraction)
Result: 0.00456

----------
details: in acetone, 308.15 K

Structure notation: CN(C)Cc1c[nH]c2ccccc12
solubility (mole fraction): 0.0523

----------
conditions: in ethyl acetate, 288.15 K
Endpoint name: solubility (mole fraction)

Structure notation: CN(C)Cc1c[nH]c2ccccc12
Result: 0.0253

----------
conditions: in ethyl acetate, 303.15 K
Endpoint name: solubility (mole fraction)

Structure notation: CN(C)Cc1c[nH]c2ccccc12
Result: 0.0377

----------
details: in toluene, 313.15 K
Endpoint name: solubility (mole fraction)

Structure notation: CN(C)Cc1c[nH]c2ccccc12
Endpoint name: solubility (mole fraction)
Result: 0.0126

----------
settings: in acetonitrile, 298.15 K

Structure notation: CN(C)Cc1c[nH]c2ccccc12
solubility (mole fraction): 0.00998

----------
settings: in ethyl acetate, 298.15 K

Structure notation: CN(C)Cc1c[nH]c2ccccc12
solubility (mole fraction): 0.0327

----------
conditions: in n-octanol, 283.15 K

Structure notation: CN(C)Cc1c[nH]c2ccccc12
solubility (mole fraction): 0.0158

----------
settings: in acetone, 303.15 K

Structure notation: CN(C)Cc1c[nH]c2ccccc12
solubility (mole fraction): 0.0463

----------
conditions: in acetone, 288.15 K

Structure notation: CN(C)Cc1c[nH]c2ccccc12
solubility (mole fraction): 0.0327

----------
details: in 1,4-dioxane, 288.15 K

Structure notation: CN(C)Cc1c[nH]c2ccccc12
solubility (mole fraction): 0.0465

----------
conditions: in isopropanol, 298.15 K

Structure notation: CN(C)Cc1c[nH]c2ccccc12
solubility (mole fraction): 0.0268

----------
conditions: in acetonitrile, 273.15 K

Structure notation: CN(C)Cc1c[nH]c2ccccc12
solubility (mole fraction): 0.00447

----------
settings: in n-octanol, 298.15 K
Endpoint name: solubility (mole fraction)

Structure notation: CN(C)Cc1c[nH]c2ccccc12
Result: 0.025

----------
conditions: in 1,4-dioxane, 298.15 K

Structure notation: CN(C)Cc1c[nH]c2ccccc12
solubility (mole fraction): 0.0562

----------
settings: in acetone, 273.15 K

Structure notation: CN(C)Cc1c[nH]c2ccccc12
solubility (mole fraction): 0.0231

----------
conditions: in n-propanol, 308.15 K

Structure notation: CN(C)Cc1c[nH]c2ccccc12
solubility (mole fraction): 0.0581

----------
settings: in methanol, 273.15 K
Endpoint name: solubility (mole fraction)

Structure notation: CN(C)Cc1c[nH]c2ccccc12
Endpoint name: solubility (mole fraction)
Result: 0.0274

----------
details: in methanol, 278.15 K
Endpoint name: solubility (mole fraction)

Structure notation: CN(C)Cc1c[nH]c2ccccc12
Result: 0.0293

----------
settings: in isopropanol, 313.15 K

Structure notation: CN(C)Cc1c[nH]c2ccccc12
solubility (mole fraction): 0.0377

----------
settings: in n-butanol, 288.15 K

Structure notation: CN(C)Cc1c[nH]c2ccccc12
solubility (mole fraction): 0.0416

----------
details: in n-butanol, 308.15 K

Structure notation: CN(C)Cc1c[nH]c2ccccc12
solubility (mole fraction): 0.0617

----------
settings: in ethanol, 283.15 K

Structure notation: CN(C)Cc1c[nH]c2ccccc12
solubility (mole fraction): 0.0254

----------
settings: in isopropanol, 293.15 K
Endpoint name: solubility (mole fraction)

Structure notation: CN(C)Cc1c[nH]c2ccccc12
Result: 0.0235

----------
conditions: in isopropanol, 283.15 K

Structure notation: CN(C)Cc1c[nH]c2ccccc12
solubility (mole fraction): 0.0178

----------
settings: in ethyl acetate, 308.15 K

Structure notation: CN(C)Cc1c[nH]c2ccccc12
solubility (mole fraction): 0.0428

----------
settings: in acetone, 293.15 K

Structure notation: CN(C)Cc1c[nH]c2ccccc12
solubility (mole fraction): 0.0364

----------
conditions: in n-butanol, 273.15 K

Structure notation: CN(C)Cc1c[nH]c2ccccc12
solubility (mole fraction): 0.0305

----------
conditions: in toluene, 288.15 K

Structure notation: CN(C)Cc1c[nH]c2ccccc12
solubility (mole fraction): 0.00537

----------
settings: in toluene, 303.15 K
Endpoint name: solubility (mole fraction)

Structure notation: CN(C)Cc1c[nH]c2ccccc12
Endpoint name: solubility (mole fraction)
Result: 0.00905

----------
details: in acetonitrile, 313.15 K
Endpoint name: solubility (mole fraction)

Structure notation: CN(C)Cc1c[nH]c2ccccc12
Result: 0.0151

----------
conditions: in n-octanol, 273.15 K

Structure notation: CN(C)Cc1c[nH]c2ccccc12
solubility (mole fraction): 0.0111

----------
conditions: in toluene, 278.15 K
Endpoint name: solubility (mole fraction)

Structure notation: CN(C)Cc1c[nH]c2ccccc12
Result: 0.00408

----------
settings: in n-octanol, 288.15 K

Structure notation: CN(C)Cc1c[nH]c2ccccc12
solubility (mole fraction): 0.0187

----------
settings: in methanol, 298.15 K

Structure notation: CN(C)Cc1c[nH]c2ccccc12
solubility (mole fraction): 0.0417

----------
conditions: in toluene, 298.15 K
Endpoint name: solubility (mole fraction)

Structure notation: CN(C)Cc1c[nH]c2ccccc12
Result: 0.00765

----------
settings: in n-octanol, 303.15 K

Structure notation: CN(C)Cc1c[nH]c2ccccc12
solubility (mole fraction): 0.0284

----------
conditions: in n-propanol, 273.15 K

Structure notation: CN(C)Cc1c[nH]c2ccccc12
solubility (mole fraction): 0.0284

----------
conditions: in acetone, 298.15 K

Structure notation: CN(C)Cc1c[nH]c2ccccc12
solubility (mole fraction): 0.0402

----------
details: in acetonitrile, 288.15 K

Structure notation: CN(C)Cc1c[nH]c2ccccc12
solubility (mole fraction): 0.00736
